Tested on: Dissociated VM cells
method: Neuroprotection Assay (NMDA-induced neuroexcitotoxic injury, high affinity 3H-dopamine uptake)
Format: cell-based, Sprague-Dawley rat
conditionNotes: embryonic day 15 rat ventral mesencephalic cultures, NMDA (100-400 µM) for 20 hours
Description: The neuroprotective activity of the compounds of this invention may be assayed using rat embryo ventral mesencephalic cells in culture which are subsequently exposed to the glutamate receptor agonist NMDA. This assay is described in detail in the example section. […]
Structures can show the parent of a compound that is named as a salt.
Field: EC50. Provide a value for each of the compounds that follow.

Q) Give the reported value of EC50 for this record: CCN1CCCC[C@H]1C(=O)N1CCN(C(c2ccccc2)c2nc(OC)cc(OC)n2)CC1 (stereo partly drawn)
A) 100 to 500 nM

Q) Provide measured EC50 value, entry: CCN1CCCC[C@H]1C(=O)N1CCC(C(O)c2ccc(F)cc2)CC1 (stereo partly drawn)
A) > 500 nM

Q) Give me measured EC50, please, for this compound: O=C([C@@H]1CCCN1Cc1ccccc1)N1CCN(c2ccc(F)cc2)CC1 [Compound 86, hydrochloride]
A) < 100 nM

Q) Please supply the value of reported EC50 for the item CCN1CCCC[C@H]1C(=O)N1CCN(Cc2ccccc2)CC1
A) 100 to 500 nM

Q) Provide EC50 value for the following compound: O=C([C@@H]1CCCN1CCc1ccccc1)N1CCC(Cc2ccccc2)CC1
A) 100 to 500 nM

Q) Respond only with EC50 recorded for CC(C)CN1CCC(C(=O)N2CCN(c3ccc(F)cc3)CC2)CC1
A) 100 to 500 nM

All values here come from patent EP1257544B1.
